- STUDY_SYSTEM: beta-catenin (Homo sapiens)
- Construct: made in house; host or cells: E. coli BL21 (DE3) pLysS
- Sequence (P35222 134-665): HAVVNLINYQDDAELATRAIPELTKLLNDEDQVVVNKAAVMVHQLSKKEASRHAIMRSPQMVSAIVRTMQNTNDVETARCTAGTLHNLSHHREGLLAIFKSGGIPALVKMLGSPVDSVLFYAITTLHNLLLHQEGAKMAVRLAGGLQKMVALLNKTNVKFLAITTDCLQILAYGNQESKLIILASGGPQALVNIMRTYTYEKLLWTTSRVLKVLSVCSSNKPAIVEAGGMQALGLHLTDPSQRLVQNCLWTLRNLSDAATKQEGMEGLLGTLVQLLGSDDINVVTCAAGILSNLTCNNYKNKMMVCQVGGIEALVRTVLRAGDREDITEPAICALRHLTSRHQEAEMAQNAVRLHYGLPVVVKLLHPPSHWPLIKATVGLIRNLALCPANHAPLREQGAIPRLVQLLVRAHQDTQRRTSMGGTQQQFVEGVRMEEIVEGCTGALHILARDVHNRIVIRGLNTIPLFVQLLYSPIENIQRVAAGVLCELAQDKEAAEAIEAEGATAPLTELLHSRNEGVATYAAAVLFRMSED
- MEASUREMENT_DESCRIPTION: Phage Library Screening with NGS, beta-catenin
- Type: binding
- CONDITION_DETAILS: beta-catenin target concentration 1000; first 1000 column
RESULT_TYPE: Target Concentration 1000 (phage screen NGS readout)

macromolecule_sequence=DPAVLDCHIAALDCHAH result=39
macromolecule_sequence=DPAILQCYEAAFSCHYQ result=39
macromolecule_sequence=DPAILDCSIAAIDCAYS result=39
macromolecule_sequence=DPAEVDCIMAAHICVWD result=40

###

- STUDY_SYSTEM: beta-catenin (Homo sapiens, UniProt P35222)
- Construct: made in house; host or cells: E. coli BL21 (DE3) pLysS
- Sequence (P35222 134-665): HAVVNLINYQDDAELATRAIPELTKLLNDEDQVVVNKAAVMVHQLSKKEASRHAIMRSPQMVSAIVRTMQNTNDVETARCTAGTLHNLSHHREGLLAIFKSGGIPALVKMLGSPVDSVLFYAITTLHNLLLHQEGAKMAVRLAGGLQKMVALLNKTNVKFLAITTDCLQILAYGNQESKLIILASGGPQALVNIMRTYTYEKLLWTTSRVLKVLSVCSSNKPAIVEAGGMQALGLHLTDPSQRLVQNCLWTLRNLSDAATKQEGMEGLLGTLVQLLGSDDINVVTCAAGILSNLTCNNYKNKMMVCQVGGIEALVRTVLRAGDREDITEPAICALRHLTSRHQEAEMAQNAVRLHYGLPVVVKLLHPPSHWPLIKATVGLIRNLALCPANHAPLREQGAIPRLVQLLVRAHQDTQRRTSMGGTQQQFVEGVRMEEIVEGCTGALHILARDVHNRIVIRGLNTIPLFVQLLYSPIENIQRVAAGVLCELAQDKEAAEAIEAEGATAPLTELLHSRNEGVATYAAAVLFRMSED
- MEASUREMENT_DESCRIPTION: Phage Library Screening with NGS, beta-catenin
- Type: binding
- CONDITION_DETAILS: beta-catenin target concentration 100; no competitor
Output schema: class label derived from Target Concentration 100 (phage screen NGS readout). Mapping: low group: < 10; middle group: ≥ 10 and < 50; high group: ≥ 50

macromolecule_sequence=DPADTECILAAHFCHYF group_label="middle group"
macromolecule_sequence=DPAIMACYEAAYLCDYI group_label="middle group"
macromolecule_sequence=DPASWRCEHAALNCQID group_label="middle group"
macromolecule_sequence=DPAQFYCEHAALLCRWE group_label="low group"
macromolecule_sequence=DPATIRCYEAAFMCQYW group_label="low group"
macromolecule_sequence=DPARHECILAAHICEWE group_label="high group"
macromolecule_sequence=DPAILTCYEAAFTCQYQ group_label="middle group"
macromolecule_sequence=DPAILECHMAAFECYIE group_label="middle group"
macromolecule_sequence=DPAEWACEHAALTCWDQ group_label="high group"
macromolecule_sequence=DPAWWQCDHAALICIAE group_label="high group"
macromolecule_sequence=DPASWDCDHAALLCTLD group_label="high group"
macromolecule_sequence=DPADYDCILAAHICTNI group_label="high group"
macromolecule_sequence=DPAMSQCNWAAVHCQLL group_label="low group"
macromolecule_sequence=DPAYWDCTHAALLCNLD group_label="high group"
macromolecule_sequence=DPAADDCVLAAHVCAYF group_label="high group"
macromolecule_sequence=DPAVMACYEAAFQCAYW group_label="low group"
macromolecule_sequence=DPAMVTCYEAAYVCQYF group_label="low group"
macromolecule_sequence=DPANVECEWAAIHCSLV group_label="middle group"
macromolecule_sequence=DPAVDECIIAAHICHIW group_label="middle group"
macromolecule_sequence=DPADWICEHAALTCQEF group_label="low group"
macromolecule_sequence=DPADDFCMWAAEHCELL group_label="high group"
macromolecule_sequence=DPAIIHCYQAAFQCQYM group_label="low group"
macromolecule_sequence=DPAVLQCYEAAFICEYM group_label="low group"
macromolecule_sequence=DPAILDCQLAAIDCVYT group_label="high group"
macromolecule_sequence=DPAIFNCTMAALECTQI group_label="low group"
macromolecule_sequence=DPATWHCDWAAEHCELL group_label="high group"
macromolecule_sequence=DPAIADCDWAAEHCDLL group_label="high group"
macromolecule_sequence=DPAVHRCFWAAEHCDLI group_label="middle group"
macromolecule_sequence=DPAYTYCQWAAEHCSLL group_label="low group"
macromolecule_sequence=DPARMTCYEAAFRCQYY group_label="low group"
macromolecule_sequence=DPAQWACEHAALLCSMD group_label="high group"
macromolecule_sequence=DPAEWYCEHAALVCTNH group_label="middle group"
macromolecule_sequence=DPAEADCMMAAHICSNI group_label="middle group"
macromolecule_sequence=DPAQSDCDWAAEHCNLI group_label="low group"
